Target: 5HT2B (Homo sapiens)
Construct: expressed in transfected cells
Sequence (P41595 whole entry): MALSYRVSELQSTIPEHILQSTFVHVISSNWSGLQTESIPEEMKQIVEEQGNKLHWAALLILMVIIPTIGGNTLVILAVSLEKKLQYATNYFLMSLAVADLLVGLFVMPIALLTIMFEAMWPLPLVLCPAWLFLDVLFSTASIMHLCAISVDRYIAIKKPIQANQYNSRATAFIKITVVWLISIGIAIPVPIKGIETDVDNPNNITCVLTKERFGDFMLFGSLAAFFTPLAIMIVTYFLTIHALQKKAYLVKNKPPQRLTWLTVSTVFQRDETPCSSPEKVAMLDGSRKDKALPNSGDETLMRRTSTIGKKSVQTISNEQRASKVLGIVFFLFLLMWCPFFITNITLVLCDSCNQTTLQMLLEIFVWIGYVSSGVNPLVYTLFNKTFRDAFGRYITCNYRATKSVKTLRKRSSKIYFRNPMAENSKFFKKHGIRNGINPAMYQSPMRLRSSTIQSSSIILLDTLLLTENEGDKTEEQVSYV
Test: Cell assay using human cells, 5HT2B (radioligand binding)
Details: Table I, hydrochloride
Counter-ions that a name gives are not always drawn.
observed property: pKi
Answers are plain numbers, as −log10 of the molar value.

Consider the worked cases shown below.
COc1cc2c(cc1OC)CC1(CC2)N[C@H]2CCCC[C@@H]2c2c1[nH]c1ccc(C)cc21 (single isomer, unassigned; isomer 18) [Isomer 18(1), hydrochloride]	6.85
COc1cc2c(cc1OC)CC1(CC2)N[C@H]2CCCC[C@@H]2c2c1[nH]c1ccc(C)cc21 (single isomer, unassigned; isomer 18) [Isomer 18(2), hydrochloride]	5.54

Kindly review the next molecule as well.
Entry COc1cc2c(cc1OC)CC1(CC2)N[C@H]2CCCC[C@@H]2c2c1[nH]c1ccc(C)cc21 (relative stereo) [Example 18, hydrochloride] under 5HT2B (Homo sapiens) had pKi of 6.75
